# MEASUREMENT_DESCRIPTION: Pharmacokinetics after i.p. administration
# Format: in vivo, mice
# TEST_CONDITIONS: mouse, whole blood, intraperitoneal, 1 mg/kg
MEASURED_METRIC: concentration at 24 h

MOLECULE | MEASURED_METRIC | OBSERVED
CO[C@H]1C[C@@H]2CC[C@@H](C)[C@@](O)(O2)C(=O)C(=O)N2CCCC[C@H]2C(=O)O[C@H]([C@H](C)C[C@@H]2CC[C@@H](O)[C@H](OC)C2)CC(=O)[C@H](C)/C=C(\C)[C@@H](O)[C@@H](OC)C(=O)[C@H](C)C[C@H](C)/C=C/C=C/C=C/1C [RAPA, rapamycin] | concentration at 24 h | > 10 nM
